Recorded measurements of pEC50, one per entry
target: PRMT5 (Homo sapiens, UniProt O14744)
Construct: seeded with 4000 MCF-7 cells; endogenous in cells
Sequence (O14744 whole entry): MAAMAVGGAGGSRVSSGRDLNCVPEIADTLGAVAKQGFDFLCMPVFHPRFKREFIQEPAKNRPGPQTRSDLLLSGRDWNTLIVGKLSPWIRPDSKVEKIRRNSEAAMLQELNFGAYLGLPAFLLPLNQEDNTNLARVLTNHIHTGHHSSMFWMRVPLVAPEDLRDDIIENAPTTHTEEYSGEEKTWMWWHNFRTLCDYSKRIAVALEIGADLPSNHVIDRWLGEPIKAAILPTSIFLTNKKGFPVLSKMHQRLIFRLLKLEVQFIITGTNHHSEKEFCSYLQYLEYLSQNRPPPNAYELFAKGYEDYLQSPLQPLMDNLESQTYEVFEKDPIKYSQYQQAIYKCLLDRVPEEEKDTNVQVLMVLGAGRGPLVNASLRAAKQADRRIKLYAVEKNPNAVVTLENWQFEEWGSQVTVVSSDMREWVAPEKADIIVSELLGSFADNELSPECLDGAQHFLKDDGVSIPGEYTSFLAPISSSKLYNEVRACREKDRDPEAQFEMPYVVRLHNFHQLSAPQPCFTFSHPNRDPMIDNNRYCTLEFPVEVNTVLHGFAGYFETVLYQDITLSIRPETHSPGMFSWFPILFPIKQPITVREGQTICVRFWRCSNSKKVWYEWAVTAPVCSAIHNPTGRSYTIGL
Sequence (Q9BQA1 whole entry partner): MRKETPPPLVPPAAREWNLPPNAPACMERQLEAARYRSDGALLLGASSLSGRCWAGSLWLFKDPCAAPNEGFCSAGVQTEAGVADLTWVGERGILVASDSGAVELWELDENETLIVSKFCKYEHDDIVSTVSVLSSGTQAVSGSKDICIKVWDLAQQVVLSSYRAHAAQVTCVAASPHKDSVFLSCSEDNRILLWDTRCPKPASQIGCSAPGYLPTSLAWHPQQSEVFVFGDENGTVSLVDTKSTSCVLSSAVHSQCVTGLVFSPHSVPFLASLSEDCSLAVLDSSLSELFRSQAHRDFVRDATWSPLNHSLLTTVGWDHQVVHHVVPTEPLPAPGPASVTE
measurement_protocol: PRMT5 Cell Target Engagement (TE) Assay
stated_conditions: MCF-7 cells, treated for 3 days, symmetrically dimethylated (SDMA) nuclear proteins by high content imaging; top concentration 10000 nM
Structures can show the parent of a compound that is named as a salt.
On this scale, pEC50 is minus log10 of a concentration expressed in M (mol/L).

Some solved entries appear below for comparison.
>>> measurement("Nc1ccn([C@@H]2C[C@H](CCc3ccc4cc(Br)c(N)nc4c3)[C@@H](O)[C@H]2O)c2ncnc1-2")
8.59
>>> measurement("Cc1ccn([C@@H]2C[C@H](CCc3ccc4cc(Br)c(N)nc4c3)[C@@H](O)[C@H]2O)c2ncnc1-2")
9.29
>>> measurement("CCc1cc2ncnc-2n([C@@H]2C[C@H](CCc3ccc4cc(Br)c(N)nc4c3)[C@@H](O)[C@H]2O)c1 [Example 11, trifluoroacetate]")
7.52
>>> measurement("Nc1ccn([C@@H]2O[C@H](COc3ccc4cc(Br)c(N)nc4c3)[C@@H](O)[C@H]2O)c2ncnc1-2")
7.72
>>> measurement("Cc1cc2ncnc-2n([C@@H]2C[C@H](CCc3ccc4cc(Br)c(N)nc4c3)[C@@H](O)[C@H]2O)c1 [Example 10, trifluoroacetate]")
6.94

Inquiry: Return reported pEC50; argument: Cc1ccn([C@@H]2C[C@H](COc3ccc4cc(Br)c(N)nc4c3)[C@@H](O)[C@H]2O)c2ncnc1-2
Reply text: 7.21

Inquiry: One more compound: Nc1nc2cc(OC[C@H]3O[C@@H](n4cnc(N)c5ncnc4-5)[C@H](O)[C@@H]3O)ccc2cc1Br
Reply text: 7.22

Inquiry: Queued: Nc1ccn([C@@H]2C[C@H](CCc3ccc4ccc(NCC(F)F)nc4c3)[C@@H](O)[C@H]2O)c2ncnc1-2
Reply text: 7.79

Inquiry: Item: Cc1ncn([C@@H]2C[C@H](CCc3ccc4cc(Br)c(N)nc4c3)[C@@H](O)[C@H]2O)c2ncnc1-2
Reply text: 8.98

Inquiry: Item: Cc1ccn([C@@H]2O[C@H](CCc3ccc4cc(Br)c(N)nc4c3)[C@@H](O)[C@H]2O)c2ncnc1-2
Reply text: 8.77

Inquiry: Record: Nc1nc2cc(CC[C@H]3C[C@@H](n4cnc(N)c5ncnc4-5)[C@H](O)[C@@H]3O)ccc2cc1Br [Example 6, hydrochloride]
Reply text: 8.77

Inquiry: One more compound: Cc1ccn([C@@H]2C[C@H](CCc3ccc4ccc(NCC(F)F)nc4c3)[C@@H](O)[C@H]2O)c2ncnc1-2
Reply text: 8.71

---

target: Full-length (FL)-PRMT5-MEP50 enzyme complex (Homo sapiens, UniProt O14744)
Construct: 1.25 nM of Full-length (FL)-PRMT5-MEP50 enzyme complex; made in house; host or cells: baculovirus-transfected Sf21 cells
measurement_protocol: PRMT5-MEP50 Enzyme Methylation Assay
Format: biochemical
stated_conditions: first value of 7 parameter biphasic fit; 1.0 nM PRMT5-MEP50, 75 nM biotinylated H4R3(Me1) peptide, 15 μM SAM, 60 min pre-incubation, 150 min at 37° C.; read-out: Enzyme Methylation Assay EC50_1
pEC50: −log10 of the molar value. Counter-ions that a name gives are not always drawn.
Label Met when pEC50 is at or above 9; anything below gets Not met.

Here are 4 molecules together with their reported answers.
>>> discrete_label("Cc1ccn([C@@H]2C[C@H](COc3ccc4cc(Br)c(N)nc4c3)[C@@H](O)[C@H]2O)c2ncnc1-2")
"Met"
>>> discrete_label("Nc1ccn([C@@H]2C[C@H](CCc3ccc4ccc(NCC(F)F)nc4c3)[C@@H](O)[C@H]2O)c2ncnc1-2")
"Met"
>>> discrete_label("Cc1ccn([C@@H]2C[C@H](CCc3ccc4ccc(NCC(F)F)nc4c3)[C@@H](O)[C@H]2O)c2ncnc1-2")
"Met"
>>> discrete_label("Nc1nc2cc(OC[C@H]3O[C@@H](n4nc5ncnc-5c(N)n4)[C@H](O)[C@@H]3O)ccc2cc1Br")
"Not met"

Inquiry: Exam item: decide whether the reported pEC50 for Nc1nc2cc(CC[C@H]3C[C@@H](n4cnc(N)c5ncnc4-5)[C@H](O)[C@@H]3O)ccc2cc1Br [Example 6, hydrochloride] is at least 9.
Reply text: Met
